- System: Mycobacterium tuberculosis
- Method Summary: Antitubercular activity against Mycobacterium tuberculosis H37Rv assessed as growth inhibition by micro plate alamar blue assay
- Assay type: functional
Measurement Type: MIC

These recorded examples may help you get a feel for the data.
Compound: COc1ccc(-c2cc3ccnc(-c4ccccc4)n3n2)cc1
Measured On: Mycobacterium tuberculosis
MIC: > 200 µM
--
Compound: CC1=NN(C(=O)c2cc(-c3ccc(Cl)cc3)n[nH]2)C(=O)/C1=N/Nc1cccc(F)c1
Measured On: Mycobacterium tuberculosis
MIC: 0.35 µg/mL

Could you please provide reported MIC for COc1ccc(-c2cc(N3CCCCC3)c(C#N)c(-c3ccccc3)n2)cc1 ? Thanks! > 200 µM

Could you please provide reported MIC for COc1ccc2c(c1)CCc1c(-c3ccc(O)cc3)nc(N)nc1-2 ? Thanks! > 200 µM

Could you please provide reported MIC for O=c1nc2ccccn2cc1-c1cc(-c2ccccc2)[nH]n1 ? Thanks! > 200 µM

Could you please provide reported MIC for CCOC(=O)/C(C#N)=C(\CC(=O)c1ccccc1)N1CCCCC1 ? Thanks! > 200 µM

Could you please provide reported MIC for N#CCc1cc(-c2ccc(Cl)cc2)[nH]n1 ? Thanks! > 200 µM

Could you please provide reported MIC for COc1ccc2c(c1)CCC1C2=NN(C(C)=O)C1c1ccc(O)cc1 (configuration not stated) ? Thanks! > 200 µM
